Biological target: UniProtKB P22002
Sequence (P22002 whole entry): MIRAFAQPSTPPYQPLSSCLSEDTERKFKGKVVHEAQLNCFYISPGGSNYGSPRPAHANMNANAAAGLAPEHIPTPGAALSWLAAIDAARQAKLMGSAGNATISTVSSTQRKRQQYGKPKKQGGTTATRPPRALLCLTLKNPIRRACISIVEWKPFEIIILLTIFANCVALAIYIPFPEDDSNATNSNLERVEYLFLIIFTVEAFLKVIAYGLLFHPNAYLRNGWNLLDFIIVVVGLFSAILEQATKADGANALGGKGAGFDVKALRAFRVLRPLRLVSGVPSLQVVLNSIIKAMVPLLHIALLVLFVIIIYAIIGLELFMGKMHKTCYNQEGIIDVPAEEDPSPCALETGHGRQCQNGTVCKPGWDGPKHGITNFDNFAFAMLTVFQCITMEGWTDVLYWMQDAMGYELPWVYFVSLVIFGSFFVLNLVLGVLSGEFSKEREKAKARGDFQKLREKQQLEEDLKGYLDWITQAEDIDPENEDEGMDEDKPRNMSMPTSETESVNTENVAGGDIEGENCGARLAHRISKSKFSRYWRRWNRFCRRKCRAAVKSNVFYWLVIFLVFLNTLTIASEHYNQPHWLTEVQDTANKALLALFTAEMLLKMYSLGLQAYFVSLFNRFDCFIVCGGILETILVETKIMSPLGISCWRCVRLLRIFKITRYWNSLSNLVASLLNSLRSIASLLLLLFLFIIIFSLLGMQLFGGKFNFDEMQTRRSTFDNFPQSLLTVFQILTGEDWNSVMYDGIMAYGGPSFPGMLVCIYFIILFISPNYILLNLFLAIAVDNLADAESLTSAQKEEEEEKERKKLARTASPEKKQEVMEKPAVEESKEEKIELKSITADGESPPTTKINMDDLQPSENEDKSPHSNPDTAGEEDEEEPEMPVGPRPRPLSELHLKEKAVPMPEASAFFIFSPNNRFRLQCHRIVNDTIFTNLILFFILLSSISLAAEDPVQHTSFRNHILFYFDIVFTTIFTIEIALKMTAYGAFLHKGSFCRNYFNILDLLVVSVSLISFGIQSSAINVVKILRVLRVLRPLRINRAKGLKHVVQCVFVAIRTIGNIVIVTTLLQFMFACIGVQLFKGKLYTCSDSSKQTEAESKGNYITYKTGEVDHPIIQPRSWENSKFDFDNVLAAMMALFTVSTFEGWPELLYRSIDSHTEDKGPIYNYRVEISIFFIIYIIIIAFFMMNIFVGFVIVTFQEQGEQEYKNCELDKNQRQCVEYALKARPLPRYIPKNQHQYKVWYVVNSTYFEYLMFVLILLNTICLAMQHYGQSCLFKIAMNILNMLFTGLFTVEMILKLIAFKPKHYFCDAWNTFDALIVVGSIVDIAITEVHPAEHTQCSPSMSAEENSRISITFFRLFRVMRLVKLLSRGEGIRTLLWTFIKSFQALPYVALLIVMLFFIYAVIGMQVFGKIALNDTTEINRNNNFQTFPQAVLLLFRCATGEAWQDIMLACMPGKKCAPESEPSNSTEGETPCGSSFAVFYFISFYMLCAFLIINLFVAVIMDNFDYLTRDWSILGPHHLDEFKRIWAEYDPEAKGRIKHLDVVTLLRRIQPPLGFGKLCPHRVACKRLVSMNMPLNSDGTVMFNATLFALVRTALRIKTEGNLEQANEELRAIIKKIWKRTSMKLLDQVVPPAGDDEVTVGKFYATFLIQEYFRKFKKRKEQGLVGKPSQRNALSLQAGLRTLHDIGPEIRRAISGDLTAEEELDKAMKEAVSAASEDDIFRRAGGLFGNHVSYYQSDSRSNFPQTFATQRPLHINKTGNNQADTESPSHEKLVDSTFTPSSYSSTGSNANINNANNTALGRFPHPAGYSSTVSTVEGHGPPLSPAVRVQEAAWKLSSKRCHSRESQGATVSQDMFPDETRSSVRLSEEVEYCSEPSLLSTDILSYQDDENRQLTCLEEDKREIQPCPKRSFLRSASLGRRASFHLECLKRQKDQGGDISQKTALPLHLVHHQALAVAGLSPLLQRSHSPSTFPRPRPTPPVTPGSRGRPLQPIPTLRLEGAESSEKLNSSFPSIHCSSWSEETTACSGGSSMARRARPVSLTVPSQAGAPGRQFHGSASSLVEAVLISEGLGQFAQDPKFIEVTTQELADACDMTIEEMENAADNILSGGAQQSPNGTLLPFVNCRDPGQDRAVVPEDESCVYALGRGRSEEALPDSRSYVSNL
Sequence (P54290 25-944 partner limits assumed): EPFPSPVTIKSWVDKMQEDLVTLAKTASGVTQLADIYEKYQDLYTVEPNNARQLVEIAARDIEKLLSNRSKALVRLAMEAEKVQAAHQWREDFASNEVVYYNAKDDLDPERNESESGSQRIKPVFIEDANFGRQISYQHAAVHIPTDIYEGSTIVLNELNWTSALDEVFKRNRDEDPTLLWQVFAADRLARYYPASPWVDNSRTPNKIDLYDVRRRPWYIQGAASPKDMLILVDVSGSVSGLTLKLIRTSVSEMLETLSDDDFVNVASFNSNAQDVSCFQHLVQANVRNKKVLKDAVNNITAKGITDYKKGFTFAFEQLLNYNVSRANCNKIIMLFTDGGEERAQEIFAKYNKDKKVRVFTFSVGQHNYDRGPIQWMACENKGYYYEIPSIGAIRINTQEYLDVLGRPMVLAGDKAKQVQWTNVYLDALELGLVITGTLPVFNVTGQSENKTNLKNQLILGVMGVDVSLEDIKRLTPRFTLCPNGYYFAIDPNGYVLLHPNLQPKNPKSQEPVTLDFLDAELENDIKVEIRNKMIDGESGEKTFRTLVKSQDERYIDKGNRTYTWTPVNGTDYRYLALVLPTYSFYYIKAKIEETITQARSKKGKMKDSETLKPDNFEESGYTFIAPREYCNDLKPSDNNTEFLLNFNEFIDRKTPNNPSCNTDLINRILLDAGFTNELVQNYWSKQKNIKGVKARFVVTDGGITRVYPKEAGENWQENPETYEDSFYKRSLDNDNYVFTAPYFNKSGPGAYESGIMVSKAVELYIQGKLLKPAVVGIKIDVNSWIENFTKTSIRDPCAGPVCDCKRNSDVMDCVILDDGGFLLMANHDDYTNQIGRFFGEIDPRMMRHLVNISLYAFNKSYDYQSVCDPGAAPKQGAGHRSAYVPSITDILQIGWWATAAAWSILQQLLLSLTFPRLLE
Sequence (P54290 945-1091 partner limits assumed): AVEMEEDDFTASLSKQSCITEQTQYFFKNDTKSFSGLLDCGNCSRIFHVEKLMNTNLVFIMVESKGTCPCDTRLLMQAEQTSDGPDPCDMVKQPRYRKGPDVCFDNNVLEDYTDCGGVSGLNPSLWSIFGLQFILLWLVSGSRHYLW
Assay: cell-based
Conditions: pA2 = negative log of molar antagonist concentration giving dose ratio of 2, active if 7 or greater, read-out: Calcium Entry Blockade (pA2) (converted)
Where a name gives a salt, the structure may show the parent alone.
metricName: Kb (nM)

// worked examples, Kb included
COC(=O)C1=C(C)NC(C)=C(C(=O)OCCCN(C)CCSc2ccc(C(C)(C)C)cc2C)C1c1cccc([N+](=O)[O-])c1 (centres unmarked)
14.5
COC(=O)C1=C(C)NC(C)=C(C(=O)OCCCNCCOc2ccccc2)C1c1cccc([N+](=O)[O-])c1 (centres unmarked)
0.468
COC(=O)C1=C(C)NC(C)=C(C(=O)OCCCNCCc2c[nH]c3ccccc23)C1c1cccc([N+](=O)[O-])c1 (centres unmarked)
0.0316
CCCCN(CCCOC(=O)C1=C(C)NC(C)=C(C(=O)OC)C1c1cccc([N+](=O)[O-])c1)CCOc1ccccc1 (centres unmarked) [Example 44, Hydrochloride Hemihydrate]
0.933
COC(=O)C1=C(C)NC(C)=C(C(=O)OCCCN(C)CCCSc2ccccc2)C1c1cccc([N+](=O)[O-])c1 (centres unmarked)
3.63
COC(=O)C1=C(C)NC(C)=C(C(=O)OCCCN(CCSc2ccccc2)CCSc2ccccc2)C1c1cccc([N+](=O)[O-])c1 (centres unmarked)
2.4
COC(=O)C1=C(C)NC(C)=C(C(=O)OCCN(C)Cc2ccccc2)C1c1cccc([N+](=O)[O-])c1 (centres unmarked) [Nicardipine, reference compound]
1.12
COC(=O)C1=C(C)NC(C)=C(C(=O)OCCCN(C)CCN(C)c2ccccc2)C1c1cccc([N+](=O)[O-])c1 (centres unmarked)
0.126
COC(=O)C1=C(C)NC(C)=C(C(=O)OCCCN(C)CCSc2ccccc2OC)C1c1cccc([N+](=O)[O-])c1 (centres unmarked)
2.75

(1) COC(=O)C1=C(C)NC(C)=C(C(=O)OCCCNCCNc2ccccc2)C1c1cccc([N+](=O)[O-])c1 (centres unmarked)
(2) COC(=O)C1=C(C)NC(C)=C(C(=O)OCCCN(CCN(C)c2ccccc2)Cc2ccccc2)C1c1cccc([N+](=O)[O-])c1 (centres unmarked) [Example 45, Dihydrochloride Sesquihydrate]
(3) COC(=O)C1=C(C)NC(C)=C(C(=O)OCCCN(C)CCNc2ccccc2)C1c1cccc([N+](=O)[O-])c1 (centres unmarked)
(4) COC(=O)C1=C(C)NC(C)=C(C(=O)OCCCN(C)CC[S+]([O-])c2ccccc2)C1c1cccc([N+](=O)[O-])c1 (centres unmarked) [Example 47, Hydrochloride Hydrate]
(5) COC(=O)C1=C(C)NC(C)=C(C(=O)OCCCNCCSc2ccccc2)C1c1cccc([N+](=O)[O-])c1 (centres unmarked)
Exam item: Task for the reader: rank each entry by its Kb, from the minimum upward. Use the labels to give the ranking in the order requested.
Marked response: 3, 4, 2, 1, 5
